Data provenance is PubChem BioAssay (NCI).

Tested on: COLO 205 colon
Test: NCI tumour cell line growth inhibition, 48 h
TGI for assorted molecules

NS(=O)(=O)c1ccc(NC(=O)c2ccc(NC3=C(Cl)C(=O)N(Cc4ccccc4)C3=O)cc2)cc1    > 100 µM
CNC(=O)c1ccccc1-[s+]1c2ccccc2c(=O)n1C (stereo not drawn)    > 100 µM

Okay, now this molecule:
Lab note: COC(=O)[C@H](Cc1ccccc1)NC(=O)c1ccc(CNC(=O)/C=C/c2ccc(-c3ccccc3)cc2)cc1 gave TGI of > 100 µM

====

Test system: DU-145 prostate
Assay: NCI tumour cell line growth inhibition, 48 h
parameter-measured: TGI

Completed entries (count: 2):
C1=C\SS/C=C\SS/C=C\SS/C=C\SS/1    > 100 µM
O=C1N[C@H]2c3c(Cl)sc(Cl)c3/C(=N/O)[C@H]2O1    > 100 µM

Okay, now this molecule:
Lab note: CC(=O)NC1C(OCc2ccccc2)OC(CO)C(O)C1OCC(=O)NC(C)C(=O)NC(CCC(=O)NCCCCNc1ccc([N+](=O)[O-])c2[nH]c3ccccc3c(=O)c12)C(N)=O (stereo not drawn) gave TGI of > 100 µM

====

Tested on: MDA-MB-435
Your answer must be one of the following: Yes for active, No for inactive

Check out these entries, answers already filled in.
CC1=C([Se]CC(OC(=O)[C@@H](CSSC(C)(C)C)NC(=O)OC(C)(C)C)C(=O)NC(C)(C)C)C(=O)c2ccccc2C1=O (stereo partly drawn)    No
CN(C)CCCOc1ccccc1NC1=C(Cl)C(=O)C(Nc2ccccc2OCCCN(C)C)=C(Cl)C1=O    No

Call for entry Cc1c2cc[nH]c(=O)c2c(C)c2c1[nH]c1cc(OCCN3CCN(C)CC3)ccc12 :
No

Call for entry COc1ccc(C#Cc2ccccc2C#CCCCCO)cc1 :
No

Call for entry CC/C(Cc1ccccc1)=C(\c1ccc(OCCN2CCCCCC2)cc1)c1ccc(OC(=O)NCc2ccccc2)cc1 :
No

Call for entry Cc1c2cnccc2c(C)c2c1c1cc(C3OCCCO3)ccc1n2C :
Yes

Call for entry Cc1nc2sccn2c1/C=C1/C(=O)Nc2ccccc21 :
No

Call for entry COc1ccc2c(c1)C(=O)c1c-2n(CCCN)c(=O)c2ccccc12 :
Yes

Call for entry NS(=O)(=O)c1ccc(NC(=O)c2ccc(NC3=C(Cl)C(=O)N(Cc4ccccc4)C3=O)cc2)cc1 :
No

====

Tested on: RXF 393 renal
Assay: NCI tumour cell line growth inhibition, 48 h; in the data active = GI50 below about 0.43 µM; inactive = the rest
Your answer must be one of the following: y = active, n = inactive

Check out these entries, answers already filled in.
CCC[CH2][Sn]([CH2]CCC)([O]C(=O)c1c(F)cccc1F)[O]C(=O)c1c(F)cccc1F    y
Cc1c2cnccc2c(C)c2c1c1cc(C3OCCCO3)ccc1n2C    y
CCCN(CCC)CCCNCc1cc(I)cc(C)c1O    n
CC1=C([Se]CC(OC(=O)[C@@H](CSSC(C)(C)C)NC(=O)OC(C)(C)C)C(=O)NC(C)(C)C)C(=O)c2ccccc2C1=O (stereo not given in full)    n
CC(=O)C1=C(O)C=C2Oc3c(C(=O)/C=C/c4cc(C(F)(F)F)cc(C(F)(F)F)c4)c(O)c(C)c(O)c3[C@]2(C)C1=O    n

Call for entry Cc1[nH]ncc1-c1cc2nc(C3CC4CCN3CC4)[nH]c(=O)c2s1 (stereo not given) :
n

Call for entry Cc1ccccc1NC(=S)Nc1ccccn1 :
n
